tested on: LOX IMVI; assay: NCI tumour cell line growth inhibition, 48 h
Calls of active or inactive are those of the source. Rule as the data show it: active = GI50 up to about 1.1 µM and inactive = higher. Where a SMILES comes first, the peptide text is derived from it. The star is where a group is joined. X33 = O=C(c1ccc(-c2ccc(Cl)cc2Cl)o1)*
# maps each entry to its GI50

Worked set:
CN/C(=N/C#N)NCc1ccccc1
> 100 µM (inactive)
Cc1cc(NS(=O)(=O)c2ccc(NC(=O)c3cccc4c(NNc5ccc(S(N)(=O)=O)cc5)c5ccccc5nc34)cc2)no1
30.5 µM (inactive)
O=C(NC1=C(Cl)C(=O)c2ccccc2C1=O)C(=O)c1c(O)c2ccccc2oc1=O
2 µM (inactive)

Lab note: record GI50 of CCC(C)C(NC(=O)CNC(=O)C(Cc1ccccc1)NC(=O)C1CCCN1C(=O)c1ccc(-c2ccc(Cl)cc2Cl)o1)C(=O)OC (stereo unspecified) (X33-PFGI-OMe; configuration not given here) tested on LOX IMVI.
33.3 µM (inactive)

Report GI50 on LOX IMVI for this entry: c1ccc(C/C(=N\Nc2nc3ccccc3o2)c2ccccn2)cc1
0.185 µM (active)

Consider the molecule Cc1nc2c(o1)C(=O)c1ccccc1/C2=N\c1ccccc1 tested on LOX IMVI; state its GI50.
1.59 µM (inactive)

These data points were gathered from ChEMBL document CHEMBL1201862.
